- assay protocol: label from the status in PepcDB records
assay metric: protein production

1. MGPIGAEADENQTVEEMKVEQYGPQTTPRGELVPDPEPELIDSTKLIEVQVVLILAYCSIILLGVIGNSLVIHVVIKFKSMRTVTNFFIANLAVADLLVNTLCLPFTLTYTLMGEWKMGPVLCHLVPYAQGLAVQVSTITLTVIALDRHRCIVYHLESKISKRISFLIIGLAWGISALLASPLAIFREYSLIEIIPDFEIVACTEKWPGEEKSIYGTVYSLSSLLILYVLPLGIISFSYTRIWSKLKNHVSPGAANDHYHQRRQKTTKMLVCVVVVFAVSWLPLHAFQLAVDIDSQVLDLKEYKLIFTVFHIIAMCSTFANPLLYGWMNSNYRKAFLSAFRCEQRLDAIHSEVSVTFKAKKNLEVRKNSGPNDSFTEATNV ... failed
2. WQPATERLQVTYLGKVSTTGMQFLSGCTEKPVIELWKKHTLAREDVFPANALLEIRPFQVWLHHLDHKGEATVHMDTFQVARIAYCTADHNVSPNIFAWVYREINDDLSYQMDCHAVECESKLEAKKLAHAMMEAFRKTFHSMKSDGRIH ... failed
3. MFIERLVALLLLFAGEFAYLRIADRFNIIDRPNQRSSHKKNVLRGGGIIFLLGVWMYAFLNTTGYPLFIGGMTLIASVAFIDDVCSLSPRFRFFVQFVAMFLLLQEAGMLVENKVWFLLPTMILGVCIINAYNFMDGINGMTGAFSLMVLFTFWLLNREMAFIDATLIELLMISALVFCFFNFRNQAICFAGDVGSVGMAYCVIFILLKLVLFTGNVTYLLFLVVYGIDTVLTIFHRLLLHENLLQPHRKHLFQLLANEGGHSHVTVSITYVLLQLAISLGYIYLPIDKWLYSVIVTIGLVTAYLIIERKLYPKHKEYLKSLSCAVMDEGYSEKCLRNEN ... failed
